Experimental Details: Antiglycation activity assessed as inhibition of advanced glycation end product formation
Type: physicochemical
pIC50: −log10 of the molar value.
The following compounds are listed with their measured pIC50 values.
Metric Name: pIC50

{"columns": ["Chemical String", "Metric Name", "Value Measured"],
 "data": [
  ["N=C(N)NN", "pIC50", 4.05],
  ["COc1c(O)cc2c(c1O)[C@@H]1O[C@H](COC(=O)c3cccc(O)c3O)[C@@H](O)[C@H](O)[C@H]1OC2=O", "pIC50", 4.22],
  ["COc1c(O)cc2c(c1O)[C@@H]1O[C@H](COC(=O)c3cc(O)c(O)c(O)c3)[C@@H](O)[C@H](O)[C@H]1OC2=O", "pIC50", 4.91],
  ["COc1c(O)cc2c(c1O)[C@@H]1O[C@H](CO)[C@@H](O)[C@H](O)[C@H]1OC2=O", "pIC50", 3.73]
]}

----------
Experimental Details: Antiglycation activity assessed as inhibition of Schiff-base formation
Format: physicochemical
pIC50: −log10 of the molar value.
Each entry below carries its reported pIC50.
Metric Name: pIC50

{"columns": ["Chemical String", "Value Measured"],
 "data": [
  ["COc1c(O)cc2c(c1O)[C@@H]1O[C@H](CO)[C@@H](O)[C@H](O)[C@H]1OC2=O", 9.27],
  ["COc1c(O)cc2c(c1O)[C@@H]1O[C@H](COC(=O)c3cc(O)c(O)c(O)c3)[C@@H](O)[C@H](O)[C@H]1OC2=O", 5.04],
  ["COc1c(O)cc2c(c1O)[C@@H]1O[C@H](COC(=O)c3cccc(O)c3O)[C@@H](O)[C@H](O)[C@H]1OC2=O", 4.12]
]}

----------
Experimental Details: Antiglycation activity assessed as inhibition of advanced glycation end product formation at 200 uM
Type: physicochemical
Metric Name: inhibition (INH)

{"columns": ["Chemical String", "Metric Name", "Value Measured"],
 "data": [
  ["COc1ccc(C(=O)OC[C@H]2O[C@H]3c4c(cc(O)c(OC)c4O)C(=O)O[C@@H]3[C@@H](O)[C@@H]2O)c([N+](=O)[O-])c1", "inhibition (INH)", "Not Active"],
  ["COc1cc(C(=O)OC[C@H]2O[C@H]3c4c(cc(O)c(OC)c4O)C(=O)O[C@@H]3[C@@H](O)[C@@H]2O)cc(OC)c1OC", "inhibition (INH)", "Not Active"],
  ["COc1c(O)cc2c(c1O)[C@@H]1O[C@H](COC(=O)c3cc(O)c(O)c(O)c3)[C@@H](O)[C@H](O)[C@H]1OC2=O", "inhibition (INH)", "83.62%"],
  ["COc1cc(C(=O)OC[C@H]2O[C@H]3c4c(cc(O)c(OC)c4O)C(=O)O[C@@H]3[C@@H](O)[C@@H]2O)ccc1O", "inhibition (INH)", "Not Active"],
  ["COc1c(O)cc2c(c1O)[C@@H]1O[C@H](COC(=O)c3ccccc3)[C@@H](O)[C@H](O)[C@H]1OC2=O", "inhibition (INH)", "Not Active"],
  ["COc1c(O)cc2c(c1O)[C@@H]1O[C@H](COC(=O)c3ccc([N+](=O)[O-])cc3)[C@@H](O)[C@H](O)[C@H]1OC2=O", "inhibition (INH)", "Not Active"],
  ["N=C(N)NN", "inhibition (INH)", "79.67%"]
]}
